B1: PRAME (parent)
chain: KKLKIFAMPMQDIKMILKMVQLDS

Variants of: B1
Experiment: protein stability index of a GFP-peptide fusion (GPS, HEK-293T) (PSI 1-6); higher = more stable;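 also: lentivirally expressed fusions sorted by FACS into six bins by GFP to DsRed ratio, PSI derived from sequencing read proportions per bin multiplied by bin number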
Conditions: c terminus: a fixed tail appended
Measured protein stability index determines class: bottom range: < 2; center range: ≥ 2 and < 3; top range: ≥ 3

Prompt line: Just checking, what class would you give `KKLKIFAMPMQDIKMILMMVQLDS` here?
Response line: center range

Prompt line: Just checking, what class would you give `KKLKIFAMPMQDPKMILKMVQLDS` here?
Response line: bottom range

Prompt line: Just checking, what class would you give `KKLKIFAMPMQDIKMILKIVQLDS` here?
Response line: center range

Prompt line: Just checking, what class would you give `KKLKIFAMPMQDIKMILKMVQIDS` here?
Response line: top range

Prompt line: Just checking, what class would you give `KKLKIFAMPMQDIKMIQKMVQLDS` here?
Response line: bottom range

Prompt line: Just checking, what class would you give `KKLKIFAMPMQDIKMILKMVILDS` here?
Response line: center range

Prompt line: Just checking, what class would you give `KKLKIFAMPHQDIKMILKMVQLDS` here?
Response line: center range

Prompt line: Just checking, what class would you give `KKLKIFAMPMQDSKMILKMVQLDS` here?
Response line: center range

Prompt line: Just checking, what class would you give `KKLKIFAMPMQDITMILKMVQLDS` here?
Response line: bottom range

Prompt line: Just checking, what class would you give `KKLKIFAMPMQDIKMILKMVQQDS` here?
Response line: center range

Prompt line: Just checking, what class would you give `KKLKIFAMPMQDIKIILKMVQLDS` here?
Response line: center range

Prompt line: Just checking, what class would you give `KKLKIFAFPMQDIKMILKMVQLDS` here?
Response line: center range

Prompt line: Just checking, what class would you give `KKLKIFAMPMQDYKMILKMVQLDS` here?
Response line: top range

Prompt line: Just checking, what class would you give `KKLKIFAMPMQDIKMIAKMVQLDS` here?
Response line: center range

Prompt line: Just checking, what class would you give `KFLKIFAMPMQDIKMILKMVQLDS` here?
Response line: center range

Prompt line: Just checking, what class would you give `KKLKIFAMPMQDIKMIMKMVQLDS` here?
Response line: center range

Prompt line: Just checking, what class would you give `KKLKIFAMPMQDIKMKLKMVQLDS` here?
Response line: bottom range

Prompt line: Just checking, what class would you give `KKLKIFAMPMQDIKMILKMVQVDS` here?
Response line: top range

Prompt line: Just checking, what class would you give `KILKIFAMPMQDIKMILKMVQLDS` here?
Response line: top range

Prompt line: Just checking, what class would you give `KKLKIFAMPMQDIKMILKMVQLDP` here?
Response line: bottom range

Prompt line: Just checking, what class would you give `KKLKIFAMPMQDIKMILKMVQLNS` here?
Response line: center range

Prompt line: Just checking, what class would you give `KKLKIFAMPMQKIKMILKMVQLDS` here?
Response line: center range

Prompt line: Just checking, what class would you give `KKLKMFAMPMQDIKMILKMVQLDS` here?
Response line: top range

Prompt line: Just checking, what class would you give `KKLKIFIMPMQDIKMILKMVQLDS` here?
Response line: top range

Prompt line: Just checking, what class would you give `KKLKIFAMPMQDQKMILKMVQLDS` here?
Response line: bottom range

Prompt line: Just checking, what class would you give `KKLKIFAMPMSDIKMILKMVQLDS` here?
Response line: center range

Prompt line: Just checking, what class would you give `KKLKIFAMPMQDIKMILKMVQLDN` here?
Response line: center range

Prompt line: Just checking, what class would you give `KKLQIFAMPMQDIKMILKMVQLDS` here?
Response line: top range

Prompt line: Just checking, what class would you give `KKLKITAMPMQDIKMILKMVQLDS` here?
Response line: center range

Prompt line: Just checking, what class would you give `KMLKIFAMPMQDIKMILKMVQLDS` here?
Response line: bottom range

Prompt line: Just checking, what class would you give `EKLKIFAMPMQDIKMILKMVQLDS` here?
Response line: center range

Prompt line: Just checking, what class would you give `KKLKIFAMPMQDIKMHLKMVQLDS` here?
Response line: center range

Prompt line: Just checking, what class would you give `KKLKIFVMPMQDIKMILKMVQLDS` here?
Response line: center range

Prompt line: Just checking, what class would you give `KKLKIFAMPMQDIKMDLKMVQLDS` here?
Response line: bottom range

Prompt line: Just checking, what class would you give `KKLKIFAMPMQDKKMILKMVQLDS` here?
Response line: bottom range

Prompt line: Just checking, what class would you give `KKLKIFAMPMQLIKMILKMVQLDS` here?
Response line: center range

Prompt line: Just checking, what class would you give `KKLKIFAMPMQDIKMILKSVQLDS` here?
Response line: center range

Prompt line: Just checking, what class would you give `KKLKIFASPMQDIKMILKMVQLDS` here?
Response line: center range
